Values compiled from patent US12702660B2.

assay: Plasma PK of H3B-6545 capsules in fasted patients, phase 1 dose escalation; format: in vivo, human; settings: female, human, plasma, oral, 450 mg, Cycle 1 Day 15; 450 mg QD capsules, fasted patients; Geometric Mean (GeoCV %); read-out: Vz/F
reported-metric: Vd/F (L)
# number only, unit L dropped from output

Input CN(C)C(=O)/C=C/CNCCOc1ccc(/C(=C(/CC(F)(F)F)c2ccccc2)c2ccc3[nH]nc(F)c3c2)cn1 . Output Vd/F: 466

---

test: Plasma PK of H3B-6545 capsules in fasted patients, phase 1 dose escalation; format: in vivo, human; conditions: female, human, plasma, oral, 450 mg, Cycle 1 Day 15; 450 mg QD capsules, fasted patients; Geometric Mean (GeoCV %)
reported-metric: AUC(0-inf)

Input CN(C)C(=O)/C=C/CNCCOc1ccc(/C(=C(/CC(F)(F)F)c2ccccc2)c2ccc3[nH]nc(F)c3c2)cn1 [H3B-6545] . Output AUC(0-inf): 17400 ng·h/mL
